The origin of these recorded values is ChEMBL document CHEMBL3046433.

# assay-target: Muscarinic receptor 2 (Cavia porcellus)
# Sequence (whole entry): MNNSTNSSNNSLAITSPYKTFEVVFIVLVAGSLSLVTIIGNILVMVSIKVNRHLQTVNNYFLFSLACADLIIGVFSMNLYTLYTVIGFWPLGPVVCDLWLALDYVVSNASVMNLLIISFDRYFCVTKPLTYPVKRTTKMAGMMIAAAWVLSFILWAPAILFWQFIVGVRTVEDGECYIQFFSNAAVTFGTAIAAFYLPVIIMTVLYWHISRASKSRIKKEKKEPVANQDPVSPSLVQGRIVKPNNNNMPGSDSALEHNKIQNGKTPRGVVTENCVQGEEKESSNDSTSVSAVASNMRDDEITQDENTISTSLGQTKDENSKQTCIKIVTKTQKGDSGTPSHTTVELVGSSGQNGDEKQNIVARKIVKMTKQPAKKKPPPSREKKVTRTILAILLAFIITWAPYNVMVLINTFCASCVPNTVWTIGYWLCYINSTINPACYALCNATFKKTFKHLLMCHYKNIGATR
# test-description: Binding affinity to Cavia porcellus (guinea pig) left atria M2 receptor after 2 hr
outcome-measure: pKb

CN(C)C[C@@H]1CO[C@H](C(c2ccccc2)c2ccccc2)O1: 6.62
C[C@@H]1OC(c2ccccc2)(c2ccccc2)O[C@@H]1CN(C)C (relative stereo): 6.48
CN(C)CC1COC(c2ccccc2)(c2ccccc2)O1 (stereo not given): 7.11
C[C@H]1OC(c2ccccc2)(c2ccccc2)O[C@@H]1CN(C)C (relative stereo): 6.71
CN(C)C[C@@H]1CO[C@@H](C(c2ccccc2)c2ccccc2)O1: 6.56

====

# test-description: Selectivity ratio of pKb for rabbit vas deferens M1 receptor to pKb for guinea pig left atria M2 receptor
outcome-measure: Ratio pKb

Consider the reported Ratio pKb for these compounds:
CN(C)C[C@@H]1CO[C@@H](C(c2ccccc2)c2ccccc2)O1: 2
C[C@H]1OC(c2ccccc2)(c2ccccc2)O[C@@H]1CN(C)C (relative stereo): 1

1. CN(C)C[C@@H]1CO[C@H](C(c2ccccc2)c2ccccc2)O1
2. CN(C)CC1COC(c2ccccc2)(c2ccccc2)O1 (stereo not given)
3. C[C@@H]1OC(c2ccccc2)(c2ccccc2)O[C@@H]1CN(C)C (relative stereo)
Ask | Order the 3 compounds from highest to lowest Ratio pKb. Write the labels, ordered according to the request.
Reply | 1, 2, 3

====

# assay-target: Muscarinic acetylcholine receptor M3 (Cavia porcellus)
# test-description: Binding affinity to Cavia porcellus (guinea pig) ileum M3 receptor after 30 min
# Format: tissue-based
outcome-measure: pKb

C[C@H]1OC(c2ccccc2)(c2ccccc2)O[C@@H]1CN(C)C (relative stereo): 6.71
CN(C)CC1COC(c2ccccc2)(c2ccccc2)O1 (stereo not given): 6.72
CN(C)C[C@@H]1CO[C@@H](C(c2ccccc2)c2ccccc2)O1: 6.67
C[C@@H]1OC(c2ccccc2)(c2ccccc2)O[C@@H]1CN(C)C (relative stereo): 6.44
CN(C)C[C@@H]1CO[C@H](C(c2ccccc2)c2ccccc2)O1: 6.07

====

# Ratio pKb values compiled below
# Species: Cavia porcellus
# test-description: Selectivity ratio of pKb for Cavia porcellus (guinea pig) ileum M3 receptor to pKb for Cavia porcellus (guinea pig) left atria M2 receptor
# Type: tissue-based
# condition-set: Atrium/Ileum
The answer should be a number; do not append a unit.

CN(C)C[C@@H]1CO[C@@H](C(c2ccccc2)c2ccccc2)O1: 1
CN(C)CC1COC(c2ccccc2)(c2ccccc2)O1 (stereo not given): 0.4

Ask | Please supply the value of reported Ratio pKb for the item C[C@@H]1OC(c2ccccc2)(c2ccccc2)O[C@@H]1CN(C)C (relative stereo)
Reply | 0.9

Ask | Please supply the value of reported Ratio pKb for the item `CN(C)C[C@@H]1CO[C@H](C(c2ccccc2)c2ccccc2)O1`
Reply | 0.3

Ask | Please supply the value of reported Ratio pKb for the item C[C@H]1OC(c2ccccc2)(c2ccccc2)O[C@@H]1CN(C)C (relative stereo)
Reply | 1
